# Tested on: platelet adhesion to collagen type III
# Experimental details: Inhibition of platelet adhesion by nanobodies in a flow (perfusion) chamber
# Type: cell-based, human
# Assay setup: 0.6 μg/ml nanobody, Table 41

{"Molecule": "12B6-3a-12B6 (protein) VHH: QVQLVESGGGLVQAGGALRLSCAASGRTFSYNPMGWFRQAPGKERDVVAAISRTGGSTYYARSVEGRFTISRDNAKRMVYLQMNALKPEDTAVYYCAAAGVRAEDGRVRTLPSEYNFWGQGTQVTVSSAAAEVQLVESGGGLVQAGGALRLSCAASGRTFSYNPMGWFRQAPGKERDVVAAISRTGGSTYYARSVEGRFTISRDNAKRMVYLQMNALKPEDTAVYYCAAAGVRAEDGRVRTLPSEYNFWGQGTQVTVSS", "% Platelet adhesion (%)": 8}
